- System: NCI-H322M
- EXPERIMENT_SUMMARY: relative viability (nuclei count vs DMSO), 5 days (fraction); higher = more cells survive
- STUDY_CONDITIONS: first compound 0.04 µM
relative viability by entry:
Write the number on its own, no unit after it.

Below are worked cases with known answers.
{"COMPOUND": "Cc1sc2c(c1C)C(c1ccc(Cl)cc1)=N[C@@H](CC(=O)OC(C)(C)C)c1nnc(C)n1-2 [JQ1] + Cc1nc(Nc2ncc(C(=O)Nc3c(C)cccc3Cl)s2)cc(N2CCN(CCO)CC2)n1 [Dasatinib] (partner 0.075 µM)", "TESTED_SYSTEM": "NCI-H322M", "relative viability": 0.234}
{"COMPOUND": "Cc1sc2c(c1C)C(c1ccc(Cl)cc1)=N[C@@H](CC(=O)OC(C)(C)C)c1nnc(C)n1-2 [JQ1] + Cc1nc(NC(=O)N2CCC[C@H]2C(N)=O)sc1-c1ccnc(C(C)(C)C(F)(F)F)c1 [Alpelisib] (partner 2 µM)", "TESTED_SYSTEM": "NCI-H322M", "relative viability": 0.752}
{"COMPOUND": "Cc1sc2c(c1C)C(c1ccc(Cl)cc1)=N[C@@H](CC(=O)OC(C)(C)C)c1nnc(C)n1-2 [JQ1] + CCNC(=O)c1noc(-c2cc(C(C)C)c(O)cc2O)c1-c1ccc(CN2CCOCC2)cc1 [Luminespib] (partner 0.01 µM)", "TESTED_SYSTEM": "NCI-H322M", "relative viability": 0.797}
{"COMPOUND": "Cc1sc2c(c1C)C(c1ccc(Cl)cc1)=N[C@@H](CC(=O)OC(C)(C)C)c1nnc(C)n1-2 [JQ1] + CC(=O)Nc1cccc(-n2c(=O)n(C3CC3)c(=O)c3c(Nc4ccc(I)cc4F)n(C)c(=O)c(C)c32)c1 [Trametinib] (partner 0.02 µM)", "TESTED_SYSTEM": "NCI-H322M", "relative viability": 0.555}
{"COMPOUND": "Cc1sc2c(c1C)C(c1ccc(Cl)cc1)=N[C@@H](CC(=O)OC(C)(C)C)c1nnc(C)n1-2 [JQ1] + O=C(CCCCCCC(=O)Nc1ccccc1)NO [Vorinostat] (partner 1 µM)", "TESTED_SYSTEM": "NCI-H322M", "relative viability": 0.853}

Shifting focus to the compound that follows.
Inquiry: Identify the reported relative viability for the following entry. Cc1sc2c(c1C)C(c1ccc(Cl)cc1)=N[C@@H](CC(=O)OC(C)(C)C)c1nnc(C)n1-2 [JQ1] + CS(=O)(=O)CCNCc1ccc(-c2ccc3ncnc(Nc4ccc(OCc5cccc(F)c5)c(Cl)c4)c3c2)o1 [Lapatinib] (partner 2 µM)
Reply text: 0.634

* * *

- System: LCLC-97TM1
- EXPERIMENT_SUMMARY: relative viability (nuclei count vs DMSO), 5 days (fraction); higher = more cells survive
- STUDY_CONDITIONS: first compound 0.01581 µM
Recorded relative viability by entry
Respond with the number and no other words.

Some molecules with known relative viability results, for comparison:
{"MOLECULE": "Nc1ccn([C@@H]2O[C@H](CO)[C@@H](O)[C@@H]2O)c(=O)n1 [Cytarabine] + C[C@@H](Oc1cc(-c2cnn(C3CCNCC3)c2)cnc1N)c1c(Cl)ccc(F)c1Cl [Crizotinib] (partner 1 µM)", "READOUT_NAME": "relative viability", "READOUT_NUMBER": 0.213}
{"MOLECULE": "COc1cc2nccc(Oc3ccc(NC(=O)Nc4cc(C)on4)c(Cl)c3)c2cc1OC [Tivozanib] + Nc1nc2[nH]cc(CCc3ccc(C(=O)N[C@@H](CCC(=O)O)C(=O)O)cc3)c2c(=O)[nH]1 [Pemetrexed] (partner 0.2 µM)", "READOUT_NAME": "relative viability", "READOUT_NUMBER": 0.178}
{"MOLECULE": "Nc1ccn([C@@H]2O[C@H](CO)[C@@H](O)[C@@H]2O)c(=O)n1 [Cytarabine] + Nc1ncn([C@H]2C[C@H](O)[C@@H](CO)O2)c(=O)n1 [Decitabine] (partner 2 µM)", "READOUT_NAME": "relative viability", "READOUT_NUMBER": 0.164}
{"MOLECULE": "COc1cc2nccc(Oc3ccc(NC(=O)Nc4cc(C)on4)c(Cl)c3)c2cc1OC [Tivozanib] + COc1cccc2cc(-c3nc([C@H]4CC[C@H](C(=O)O)CC4)n4ncnc(N)c34)[nH]c12 [OSI-027] (partner 0.5 µM)", "READOUT_NAME": "relative viability", "READOUT_NUMBER": 0.573}

Could you now look at the following molecule, please?
Inquiry: Supply reported relative viability belonging to this molecule: Nc1ccn([C@@H]2O[C@H](CO)[C@@H](O)[C@@H]2O)c(=O)n1 [Cytarabine] + N=C(N)NC(=N)NCCc1ccccc1 [Phenformin] (partner 250 µM)
Reply text: 0.34

* * *

- Tested on: NCI-H727
- EXPERIMENT_SUMMARY: relative viability (nuclei count vs DMSO), 5 days (fraction); higher = more cells survive
- STUDY_CONDITIONS: first compound 0.8 µM
READOUT_NAME: relative viability
Provide a numeric answer; units are not to be included.

Past entries and their recorded results:
{"MOLECULE": "Cc1cnc(-c2cnc(NCCNc3ccc(C#N)cn3)nc2-c2ccc(Cl)cc2Cl)[nH]1 + C[C@]1(O)C[C@@H](c2nc(-c3ccc4ccc(-c5ccccc5)nc4c3)c3c(N)nccn32)C1 [Linsitinib] (partner 1 µM)", "relative viability": 0.295}
{"MOLECULE": "Cc1cnc(-c2cnc(NCCNc3ccc(C#N)cn3)nc2-c2ccc(Cl)cc2Cl)[nH]1 + CC(C)C[C@H](NC(=O)[C@H](Cc1ccccc1)NC(=O)c1cnccn1)B(O)O [Bortezomib] (partner 0.002 µM)", "relative viability": 0.982}

Inquiry: Quote relative viability reported for O=c1[nH]c2ccccc2n1C1CCN(CCCC(c2ccc(F)cc2)c2ccc(F)cc2)CC1 [Pimozide] + C[C@@H](Oc1cc(-c2cnn(C3CCNCC3)c2)cnc1N)c1c(Cl)ccc(F)c1Cl [Crizotinib] (partner 1 µM) please.
Reply text: 0.855

* * *

// values below are reported relative viability
- Test system: NCI-H23
- EXPERIMENT_SUMMARY: relative viability (nuclei count vs DMSO), 5 days (fraction); higher = more cells survive
- STUDY_CONDITIONS: first compound 0.253 µM

Inquiry: // fetch relative viability given entry O=c1[nH]c2ccccc2n1C1CCN(CCCC(c2ccc(F)cc2)c2ccc(F)cc2)CC1 [Pimozide] + N=C(N)NC(=N)NCCc1ccccc1 [Phenformin] (partner 250 µM)
Reply text: 0.741

Inquiry: Quickly give me recorded relative viability for Cc1cnc(-c2cnc(NCCNc3ccc(C#N)cn3)nc2-c2ccc(Cl)cc2Cl)[nH]1 + COc1cc2c(Oc3ccc(NC(=O)C4(C(=O)Nc5ccc(F)cc5)CC4)cc3F)ccnc2cc1OCCCN1CCOCC1 [Foretinib] (partner 0.25 µM)
Reply text: 1

Inquiry: Input Cc1cnc(-c2cnc(NCCNc3ccc(C#N)cn3)nc2-c2ccc(Cl)cc2Cl)[nH]1 + Nc1ncn([C@H]2C[C@H](O)[C@@H](CO)O2)c(=O)n1 [Decitabine] (partner 2 µM) , output reported relative viability.
Reply text: 0.293

* * *

- System: NCI-H1703
- EXPERIMENT_SUMMARY: relative viability (nuclei count vs DMSO), 5 days (fraction); higher = more cells survive
- STUDY_CONDITIONS: first compound 0.1581 µM
READOUT_NAME: relative viability
# output: bare number, no unit

{"MOLECULE": "COc1cc2nccc(Oc3ccc(NC(=O)Nc4cc(C)on4)c(Cl)c3)c2cc1OC [Tivozanib] + COc1cc2c(Oc3ccc(NC(=O)C4(C(=O)Nc5ccc(F)cc5)CC4)cc3F)ccnc2cc1OCCCN1CCOCC1 [Foretinib] (partner 0.25 µM)", "relative viability": 0.33}
{"MOLECULE": "COc1cc2nccc(Oc3ccc(NC(=O)Nc4cc(C)on4)c(Cl)c3)c2cc1OC [Tivozanib] + O=C(c1cc(Cc2n[nH]c(=O)c3ccccc23)ccc1F)N1CCN(C(=O)C2CC2)CC1 [Olaparib] (partner 8 µM)", "relative viability": 0.177}
{"MOLECULE": "Nc1ccn([C@@H]2O[C@H](CO)[C@@H](O)[C@@H]2O)c(=O)n1 [Cytarabine] + Cc1nc(NC(=O)N2CCC[C@H]2C(N)=O)sc1-c1ccnc(C(C)(C)C(F)(F)F)c1 [Alpelisib] (partner 2 µM)", "relative viability": 0.117}
{"MOLECULE": "Nc1ccn([C@@H]2O[C@H](CO)[C@@H](O)[C@@H]2O)c(=O)n1 [Cytarabine] + CC1(C)CCC(c2ccc(Cl)cc2)=C(CN2CCN(c3ccc(C(=O)NS(=O)(=O)c4ccc(N[C@H](CCN5CCOCC5)CSc5ccccc5)c(S(=O)(=O)C(F)(F)F)c4)cc3)CC2)C1 [Navitoclax] (partner 0.5 µM)", "relative viability": 0.135}

Inquiry: Please give measured relative viability of the following entry: Nc1ccn([C@@H]2O[C@H](CO)[C@@H](O)[C@@H]2O)c(=O)n1 [Cytarabine] + NC(=O)Nc1cc(-c2cccc(F)c2)sc1C(=O)N[C@H]1CCCNC1 [AZD7762] (partner 0.2 µM)
Reply text: 0.124

Inquiry: Tell me its relative viability given Nc1ccn([C@@H]2O[C@H](CO)[C@@H](O)[C@@H]2O)c(=O)n1 [Cytarabine] + CC(C)C[C@H](NC(=O)[C@H](Cc1ccccc1)NC(=O)c1cnccn1)B(O)O [Bortezomib] (partner 0.002 µM) as the entry.
Reply text: 0.117

Inquiry: For the molecule Nc1ccn([C@@H]2O[C@H](CO)[C@@H](O)[C@@H]2O)c(=O)n1 [Cytarabine] + C[C@@H](Oc1cc(-c2cnn(C3CCNCC3)c2)cnc1N)c1c(Cl)ccc(F)c1Cl [Crizotinib] (partner 1 µM) , give its reported relative viability.
Reply text: 0.148

Inquiry: State, in one line, measured relative viability of COc1cc2nccc(Oc3ccc(NC(=O)Nc4cc(C)on4)c(Cl)c3)c2cc1OC [Tivozanib] + CS(=O)(=O)CCNCc1ccc(-c2ccc3ncnc(Nc4ccc(OCc5cccc(F)c5)c(Cl)c4)c3c2)o1 [Lapatinib] (partner 2 µM)
Reply text: 0.305
